The reported numbers originate from paper PMC4042160.

- experimental-target: full length LRRK2 protein (Homo sapiens, UniProt Q5S007)
- Construct: compounds were tested in triplicate with full length LRRK2 protein; made in house
- Sequence (Q5S007 whole entry): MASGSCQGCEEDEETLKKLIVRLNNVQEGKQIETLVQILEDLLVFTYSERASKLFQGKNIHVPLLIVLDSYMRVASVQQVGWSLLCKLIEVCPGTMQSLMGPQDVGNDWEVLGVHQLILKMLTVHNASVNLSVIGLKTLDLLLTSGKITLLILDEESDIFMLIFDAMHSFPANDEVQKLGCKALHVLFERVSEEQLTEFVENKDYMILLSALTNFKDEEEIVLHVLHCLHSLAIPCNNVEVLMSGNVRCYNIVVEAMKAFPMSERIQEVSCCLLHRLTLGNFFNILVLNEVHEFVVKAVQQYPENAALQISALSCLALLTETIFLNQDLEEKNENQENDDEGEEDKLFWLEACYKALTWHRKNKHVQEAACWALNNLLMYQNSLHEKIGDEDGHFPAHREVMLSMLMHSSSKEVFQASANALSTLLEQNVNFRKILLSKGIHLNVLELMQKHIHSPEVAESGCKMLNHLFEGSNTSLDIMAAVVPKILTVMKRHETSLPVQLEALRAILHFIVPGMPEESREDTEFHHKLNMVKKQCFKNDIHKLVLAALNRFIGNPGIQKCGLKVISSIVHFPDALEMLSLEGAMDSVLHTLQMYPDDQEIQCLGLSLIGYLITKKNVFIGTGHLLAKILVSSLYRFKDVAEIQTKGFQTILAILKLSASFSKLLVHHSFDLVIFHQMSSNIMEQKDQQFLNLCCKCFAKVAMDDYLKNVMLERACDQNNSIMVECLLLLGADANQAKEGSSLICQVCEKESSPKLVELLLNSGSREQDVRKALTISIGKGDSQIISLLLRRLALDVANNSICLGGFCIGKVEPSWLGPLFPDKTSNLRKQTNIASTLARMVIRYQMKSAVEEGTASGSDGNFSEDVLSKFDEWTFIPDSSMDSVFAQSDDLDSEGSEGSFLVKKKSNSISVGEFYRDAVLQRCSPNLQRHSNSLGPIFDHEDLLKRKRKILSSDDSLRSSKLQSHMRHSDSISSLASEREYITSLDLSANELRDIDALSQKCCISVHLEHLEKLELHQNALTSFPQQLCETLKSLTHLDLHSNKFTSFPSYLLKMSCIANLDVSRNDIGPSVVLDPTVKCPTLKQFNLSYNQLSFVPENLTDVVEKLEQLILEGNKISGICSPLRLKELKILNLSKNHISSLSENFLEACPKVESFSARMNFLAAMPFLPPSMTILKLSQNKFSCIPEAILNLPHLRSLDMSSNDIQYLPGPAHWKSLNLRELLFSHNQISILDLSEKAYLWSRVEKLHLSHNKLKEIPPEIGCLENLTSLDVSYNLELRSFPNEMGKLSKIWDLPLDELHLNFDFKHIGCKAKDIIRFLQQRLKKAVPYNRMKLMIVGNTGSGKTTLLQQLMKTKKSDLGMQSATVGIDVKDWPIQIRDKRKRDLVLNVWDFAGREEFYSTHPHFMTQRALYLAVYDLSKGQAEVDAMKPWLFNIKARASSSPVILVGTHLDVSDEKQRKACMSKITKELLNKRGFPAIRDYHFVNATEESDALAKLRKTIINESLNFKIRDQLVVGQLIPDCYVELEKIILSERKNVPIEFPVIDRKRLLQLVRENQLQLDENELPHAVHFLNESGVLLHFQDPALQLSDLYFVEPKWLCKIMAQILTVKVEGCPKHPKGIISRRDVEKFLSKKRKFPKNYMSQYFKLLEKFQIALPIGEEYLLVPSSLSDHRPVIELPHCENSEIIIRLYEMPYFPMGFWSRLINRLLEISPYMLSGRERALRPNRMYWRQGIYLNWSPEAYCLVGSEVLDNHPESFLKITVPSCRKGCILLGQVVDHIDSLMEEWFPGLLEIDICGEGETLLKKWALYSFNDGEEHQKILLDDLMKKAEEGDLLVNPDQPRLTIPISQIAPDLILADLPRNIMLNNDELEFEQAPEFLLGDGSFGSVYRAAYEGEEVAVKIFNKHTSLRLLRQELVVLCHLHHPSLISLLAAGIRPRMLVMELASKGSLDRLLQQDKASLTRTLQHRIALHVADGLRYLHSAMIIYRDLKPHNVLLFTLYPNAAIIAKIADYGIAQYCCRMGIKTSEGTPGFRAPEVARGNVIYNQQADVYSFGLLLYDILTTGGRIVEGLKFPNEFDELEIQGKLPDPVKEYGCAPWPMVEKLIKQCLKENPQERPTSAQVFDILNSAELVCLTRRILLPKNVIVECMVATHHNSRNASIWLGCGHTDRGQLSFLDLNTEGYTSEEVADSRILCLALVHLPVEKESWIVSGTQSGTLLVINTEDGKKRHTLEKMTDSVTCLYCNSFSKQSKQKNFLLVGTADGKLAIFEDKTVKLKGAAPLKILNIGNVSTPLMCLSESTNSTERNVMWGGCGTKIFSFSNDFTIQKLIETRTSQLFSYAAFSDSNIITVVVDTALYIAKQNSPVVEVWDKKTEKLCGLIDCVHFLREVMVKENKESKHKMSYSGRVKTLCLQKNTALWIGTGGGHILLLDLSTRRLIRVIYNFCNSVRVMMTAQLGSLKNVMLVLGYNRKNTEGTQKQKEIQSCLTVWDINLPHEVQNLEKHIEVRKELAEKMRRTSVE
- protocol-description: In vitro LRRKtide kinase assay with full length recombinant LRRK2, dose-response (IC50/pIC50)
- Assay type: biochemical
- condition: full length LRRK2; 10 μM ATP; read-out: IC50 (LRRKtide phosphorylation assay)
measured-property: pIC50
Entry type: numeric. Quantity: pIC50, the -log10 of concentration in molar units.

Entry `COc1cc(C(=O)N2CCC(N3CCN(C)CC3)CC2)ccc1Nc1ncc2c(n1)N(C)c1ccccc1C(=O)N2C` has what pIC50?
8.45

---

- experimental-target: LRRK2 phospho-Ser935 (Homo sapiens, UniProt Q5S007)
- Construct: expressed in transfected cells
- protocol-description: Cellular LRRK2 phosphoserine 935 dephosphorylation spotblot assay in SH-SY5Y cells stably expressing 3xFlag-LRRK2
- Format: cell-based
- condition: @ 5 μM for 2 h; SH-SY5Y stably expressing LRRK2; pS935/total LRRK2
Exercise: state measured Phosphorylation level relative to solvent (%) (cellular pS935 assay) for each of the molecules provided.
Answer with a number only, understood to be in %.

Entry COC(=O)[C@@]1(O)C[C@H]2O[C@]1(C)n1c3ccccc3c3c4c(c5c6ccccc6n2c5c31)C(=O)NC4 [K-252a, Nocardiopsis sp., K-252a] has what Phosphorylation level relative to solvent (%) (cellular pS935 assay)?
72.18

Now try CO[C@H]1[C@@H](OC)C[C@H](C)[C@@H](OC)C2=CC(=O)C=C(NC(=O)/C(C)=C/C=C\[C@H](OC)[C@@H](OC(N)=O)/C(C)=C/[C@@H]1C)C2=O [Herbimycin A, Streptomyces sp., Herbimycin A] .
92.79

Now try Nc1ncnc2n[nH]c(Nc3ccc(F)cc3)c12 [MNK1 inhibitor] .
70.32

Now try COc1ccc(S(=O)(=O)N(CCO)c2ccccc2CN(C)C/C=C/c2ccc(Cl)cc2)cc1 [KN-93] .
102.70

Now try N#Cc1cnc2cnc(NCc3cccnc3)cc2c1Nc1ccc(F)c(Cl)c1 [Tpl2 kinase inhibitor] .
102.54

Now try CC(C)c1nn(-c2c(Cl)cccc2Cl)c2nc(Cc3ccc(OCCO)cc3)[nH]c(=O)c12 [Cdk/Crk inhibitor] .
97.11

Now try CCCCc1c(-c2ccc(OC)cc2)[nH]c2nccnc12 [Aloisine, RP106] .
109.11

---

- experimental-target: LRRK2 phospho-Ser935 (Homo sapiens)
- Construct: expressed in transfected cells
- protocol-description: Cellular LRRK2 phosphoserine 935 dephosphorylation spotblot assay in SH-SY5Y cells stably expressing 3xFlag-LRRK2
- Assay type: cell-based
- condition: @ 5 μM for 2 h; SH-SY5Y stably expressing LRRK2; pS935/total LRRK2
Where a name gives a salt, the structure may show the parent alone.
measured-property: Phosphorylation level relative to solvent (%) (cellular pS935 assay)
Answer with a number only, understood to be in %.

Entry CN(C)c1ccc(/C=C2\C(=O)Nc3ccccc32)cc1 [DMBI] has what Phosphorylation level relative to solvent (%) (cellular pS935 assay)?
54.34

Now try Nc1ccc2ncnc(NCCc3ccc(Oc4ccccc4)cc3)c2c1 [NF-KB activation inhibitor] .
65.67

Now try O=S(=O)(c1cccc2cnccc12)N1CCCNCC1 [HA 1077, Dihydrochloride Fasudil, Fasudil] .
89.37

Now try Nc1nc(Nc2ccc(S(N)(=O)=O)cc2)nn1C(=O)c1c(F)cccc1F [Aurora kinase/Cdk inhibitor] .
45.67

Now try N#CC(c1ccnc(NCCc2cccnc2)n1)c1nc2ccccc2s1 (stereo not drawn) [JNK inhibitor V] .
71.85

Now try CN([C@@H](Cc1ccc(OS(=O)(=O)c2cccc3cnccc23)cc1)C(=O)N1CCN(c2ccccc2)CC1)S(=O)(=O)c1cccc2cnccc12 [KN-62] .
84.73

Now try COc1cc2ncnc(Nc3ccc(NC(=O)c4ccccc4)cc3)c2cc1OC [Aurora kinase inhibitor II] .
69.85

Now try N#C/C(=C/c1ccc(O)c(O)c1)C(=O)NCc1ccccc1 [AG490] .
50.68

Now try N#C/C(=C(/N)Sc1ccc(N)cc1)c1ccccc1C(F)(F)F [MEK 1/2 inhibitor] .
117.92

Now try COc1cc2ncc(-c3ccccc3)nc2cc1OC [AG 1296] .
50.93

Now try O=C(Nc1nc2ccccc2n1CCN1CCOCC1)c1cccc([N+](=O)[O-])c1 [IRAK-1/4 inhibitor] .
71.83

Now try O=C1NC(=O)c2c1c1c3ccccc3n3c1c1c2c2ccccc2n1C1CCC3O1 [SB 218078] .
89.51

Now try O=[N+]([O-])/C=C/c1ccc2c(c1)OCO2 [Syk inhibitor III] .
68.01

Now try Fc1ccc(-c2nc3n(c2-c2ccncc2)CCS3)cc1 [SKF-86002] .
121.09

Now try Cc1cncc2cccc(S(=O)(=O)N3CCCN(C(=O)CN)C[C@@H]3C)c12 [Rho kinase inhibitor IV] .
59.98

Now try Nc1nccc(-c2c(-c3ccc(F)cc3)ncn2C2CCNCC2)n1 [SB 220025] .
70.97

Now try Nc1ncnc2c1cnn2-c1ccccc1 [PP3] .
84.67

Now try O=C1NC(=O)c2c1c1c3ccccc3[nH]c1c1[nH]c3cc(Br)ccc3c21 [Cdk4 inhibitor] .
49.88

---

- experimental-target: full length LRRK2 protein (Homo sapiens, UniProt Q5S007)
- Construct: compounds were tested in triplicate with full length LRRK2 protein; made in house
- protocol-description: In vitro LRRKtide kinase assay with full length recombinant LRRK2, dose-response (IC50/pIC50)
- Type: biochemical
- condition: LRRKtide phosphorylation, dose-response; read-out: IC50 in vitro (lrrktide)
measured-property: IC50

What measured IC50 is associated with `COc1cc2ncnc(N3CCN(C(=O)Nc4ccc(Oc5ccccc5)cc4)CC3)c2cc1OC` on full length LRRK2 protein (Homo sapiens, UniProt Q5S007)?
> 10000 nM

Now try `Nc1ccc2ncnc(NCCc3ccc(Oc4ccccc4)cc3)c2c1` .
> 10000 nM

Now try `COc1cc(OC)c(C=C2C(O)=Nc3ccccc32)c(OC)c1` .
> 10000 nM

Now try `Cc1cc(C)c(/C=C2\C(=O)Nc3ccccc32)[nH]1` .
273 nM

Now try `COc1cc(N2CCOCC2)ccc1Nc1ncc(F)c(Nc2ccccc2NS(C)(=O)=O)n1` .
1.78 nM

Now try `COc1ccc(CNc2nc(N(CCO)CCO)nc3c2ncn3C(C)C)cc1` .
> 10000 nM

Now try `COc1ccc2c(c1)/C(=C/c1cnc[nH]1)C(=O)N2` .
2100 nM

Now try O=C1Nc2ccccc2/C1=C1/Nc2ccccc2/C1=N\OCC(O)CO (stereo not drawn) .
685 nM

Now try `COc1cc2ncnc(Nc3ccc(NC(=O)c4ccccc4)cc3)c2cc1OC` .
> 10000 nM

---

- experimental-target: GST-tagged truncated LRRK2 containing residues 970 to 2527 (Homo sapiens)
- Construct: GST-tagged truncated LRRK2 containing residues 970 to 2527 (Life Technologies); purchased Life Technologies
- protocol-description: In vitro LRRKtide peptide-substrate kinase assay, single dose testing (10 μM)
- Format: biochemical
- condition: LRRKtide assay @ 10 μM inhibitor; GST-LRRK2 970-2527; 10 μM ATP; mean, N = 3; solvent control = 100%
measured-property: % LRRKtide phosphorylation relative to solvent (%)
Answer with a number only, understood to be in %.

What measured % LRRKtide phosphorylation relative to solvent is associated with `O=C(Nc1cccc(Nc2cc(Nc3cccc(C(F)(F)F)c3)ncn2)c1)C1CC1` on GST-tagged truncated LRRK2 containing residues 970 to 2527 (Homo sapiens)?
64.37

Now try `CNc1cc2c(Nc3cccc(Br)c3)ncnc2cn1` .
6.06

Now try `Nc1nccc(-c2c(-c3ccc(F)cc3)ncn2C2CCNCC2)n1` .
73.68

Now try `CC(C)(C)c1cc(C=C(C#N)C#N)cc(Br)c1O` .
51.38

Now try `CC#CC(=O)Nc1cc2c(Nc3ccc(F)c(Cl)c3)ncnc2cn1` .
81.86

---

- experimental-target: LRRK2 phospho-Ser935 (Homo sapiens)
- Construct: expressed in transfected cells
- protocol-description: Cellular LRRK2 phosphoserine 935 dephosphorylation spotblot assay in SH-SY5Y cells stably expressing 3xFlag-LRRK2
- Format: cell-based
- condition: @ 5 μM for 2 h; SH-SY5Y stably expressing LRRK2; pS935/total LRRK2
measured-property: Phosphorylation level relative to solvent (%) (cellular pS935 assay)
Answer with a number only, understood to be in %.

Entry `Cc1cccc(-c2[nH]c(C(C)(C)C)nc2-c2ccc3c(c2)OCO3)n1` has what Phosphorylation level relative to solvent (%) (cellular pS935 assay)?
57.95

Now try `O=C1NC(=O)C(c2cn(CCCO)c3ncccc23)=C1c1cnccn1` .
87.77

Now try `CCN1/C(=C/C(C)=O)Sc2ccc(OC)cc21` .
81.30

Now try `CCOC(=O)c1c(C)[nH]c(/C=C2\C(=O)Nc3ccccc32)c1C` .
60.83

Now try `CNc1cc2c(Nc3cccc(Br)c3)ncnc2cn1` .
80.85

Now try `CC(C)n1cnc2c(Nc3cccc(Cl)c3)nc(NCCO)nc21` .
76.44

Now try `O=C1Nc2ccc3ncsc3c2/C1=C/c1cnc[nH]1` .
29.00

Now try `C[C@@H](N)[C@H]1CC[C@H](C(=O)Nc2ccncc2)CC1` .
69.28
